- EXPERIMENT NOTES: chemical genetic growth profiling, strain panel (AID 1159580);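 also: tested at 20 µM; growth read once vehicle control cultures reached saturation at 30 °C; 1 = growth at the plate median or of vehicle wells; lower values mean less growth of the strain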
- RECORDED CONDITIONS: S. cerevisiae deletion strains, growth OD, locus YMR219W, strain ESC1, stronger effect = lower value
The whole screen tested about 5,500 compounds, of which about 2,000 (36%) were called active. Inconclusive results (about 18%) are left out. Some of the results follow.
READOUT TYPE: normalized growth
I only need the number, thanks.

# annotated cases, reported normalized growth shown
COc1ccccc1N1CCN(C(=O)C(C)Nc2ccccn2)CC1 (configuration not stated) : 0.999
COc1ccccc1NC(=S)NCCC(=O)O : 1.01
Cc1ccc(S(=O)(=O)N2CCC(N)=N2)cc1 : 0.995
COc1ccccc1N1CCN(C(=O)c2cccs2)CC1 : 0.988
Cn1c(SCc2ccccc2)nnc1-c1ccc2ncccc2c1 : 0.999

For the compound O=C(Nc1ccc(Cl)cc1)N1CCN(c2ncccc2C(F)(F)F)CC1 , give its reported normalized growth.
0.976

For the compound Cc1ccc(NC(=O)CC#N)c(C)c1 , give its reported normalized growth.
1.02

For the compound CC(C)(C)C1=CC(=O)C=C(C(C)(C)C)C1=O , give its reported normalized growth.
1.01

For the compound COC(=O)Cc1cc(OC)c(OC)cc1[N+](=O)[O-] , give its reported normalized growth.
1

For the compound Cc1ccc(Sc2nc(C)c([N+](=O)[O-])c(C)c2C#N)cc1 , give its reported normalized growth.
0.979

For the compound CCOC(=O)c1cnc2n(c1=O)CCS2 , give its reported normalized growth.
0.999

For the compound O=C1NC(=S)NC(=O)C1=Cc1cccc2ccccc12 , give its reported normalized growth.
0.985
